System: AGS cells
test-method-notes: MTT cell viability assay, AGS
Assay type: cell-based, human
measurement-conditions: read-out: IC50 cell proliferation, AGS; 72 h, MTT
assay-endpoint: IC50 (µM)
Report the value in µM with no unit label.

[Q] Specify IC50 for COc1ccc(CCCOC(Cn2ccnc2)c2ccc(OC)cc2)cc1 (stereo not shown) [SKF-96365, reference compound] and stop.
[A] 37
